Cited source for all entries: patent US12122763B2

# SYSTEM UNDER TEST: Androgen Receptor (AR) protein (Homo sapiens, UniProt P10275, T878A)
# Construct: endogenous in cells; host or cells: LNCaP
# Sequence (P10275 whole entry T878A): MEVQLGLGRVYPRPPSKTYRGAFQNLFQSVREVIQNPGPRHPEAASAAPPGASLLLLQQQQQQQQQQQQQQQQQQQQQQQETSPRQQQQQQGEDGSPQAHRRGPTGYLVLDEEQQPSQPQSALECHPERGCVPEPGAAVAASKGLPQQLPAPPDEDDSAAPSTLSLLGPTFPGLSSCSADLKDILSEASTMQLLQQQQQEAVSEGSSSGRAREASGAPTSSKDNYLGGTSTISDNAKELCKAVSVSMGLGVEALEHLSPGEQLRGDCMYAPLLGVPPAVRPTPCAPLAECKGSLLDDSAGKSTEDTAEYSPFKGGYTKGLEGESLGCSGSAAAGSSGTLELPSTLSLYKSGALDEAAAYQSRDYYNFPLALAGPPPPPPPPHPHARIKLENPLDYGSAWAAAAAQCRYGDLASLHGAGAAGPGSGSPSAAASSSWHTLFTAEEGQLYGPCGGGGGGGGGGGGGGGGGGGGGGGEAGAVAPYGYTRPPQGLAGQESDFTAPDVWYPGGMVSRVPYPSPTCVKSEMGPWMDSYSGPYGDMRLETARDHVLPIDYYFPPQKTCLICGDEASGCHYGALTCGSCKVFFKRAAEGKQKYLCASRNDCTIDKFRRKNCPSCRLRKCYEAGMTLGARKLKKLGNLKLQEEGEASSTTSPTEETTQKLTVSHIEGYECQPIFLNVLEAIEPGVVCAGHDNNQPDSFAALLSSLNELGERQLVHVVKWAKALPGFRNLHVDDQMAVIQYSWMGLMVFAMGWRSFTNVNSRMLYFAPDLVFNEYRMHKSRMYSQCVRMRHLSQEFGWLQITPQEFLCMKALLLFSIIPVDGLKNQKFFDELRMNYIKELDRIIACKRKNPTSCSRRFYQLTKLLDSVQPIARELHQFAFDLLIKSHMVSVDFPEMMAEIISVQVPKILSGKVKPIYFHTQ
# Sequence (Q96SW2 whole entry partner): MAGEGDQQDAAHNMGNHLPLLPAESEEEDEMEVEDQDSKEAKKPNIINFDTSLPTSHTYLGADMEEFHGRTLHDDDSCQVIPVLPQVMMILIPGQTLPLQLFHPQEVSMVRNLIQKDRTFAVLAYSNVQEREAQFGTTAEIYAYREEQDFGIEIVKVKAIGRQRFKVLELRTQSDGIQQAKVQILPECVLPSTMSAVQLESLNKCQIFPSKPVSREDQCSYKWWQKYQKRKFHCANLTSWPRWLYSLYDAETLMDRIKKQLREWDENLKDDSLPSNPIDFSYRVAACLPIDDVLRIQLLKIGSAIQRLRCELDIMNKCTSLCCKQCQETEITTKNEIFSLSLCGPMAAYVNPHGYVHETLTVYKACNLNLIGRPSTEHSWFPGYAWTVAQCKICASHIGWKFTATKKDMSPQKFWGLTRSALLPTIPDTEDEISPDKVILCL
# PROTOCOL SUMMARY: Androgen Receptor (AR) protein degradation assay in LNCaP cells, western blotting
# Assay type: cell-based
# RUN CONDITIONS: 20 h, 0.01 μM compound
If the reported inhibition at 0.01 µM equals or exceeds 30%, assign y. If not, assign n.

Please tell me: is the compound N#Cc1ccc(N2CCC(C(=O)Nc3ccc(N4CC5(CCN(C[C@H]6CCN(c7ccc8c(c7)C(=O)N(C7CCC(=O)NC7=O)C8=O)C6)CC5)C4)cn3)CC2)cc1C(F)(F)F (stereo partly shown) at or over 30% in terms of inhibition at 0.01 µM?
n

Kindly determine if inhibition at 0.01 µM recorded for N#Cc1ccc(N2CCC(C(=O)Nc3ncc(N4CCC(CN5CCN(C[C@H]6CCN(c7cc8c(cc7F)C(=O)N(C7CCC(=O)NC7=O)C8=O)C6)CC5)CC4)cn3)CC2)cc1C(F)(F)F (stereo partly shown) is above or exactly 30%.
n

In plain terms: is recorded inhibition at 0.01 µM at least 30% for N#Cc1ncc(N2CCC(F)(C(=O)Nc3ccc(N4CCC(CN5CCN(C6CCN(c7ccc8c(c7)C(=O)N(C7CCC(=O)NC7=O)C8=O)CC6)CC5)CC4)cn3)CC2)cc1C(F)(F)F (stereo not shown) ?
n

Further cases:
Given the entry N#Cc1ccc(N2CCC(F)(C(=O)Nc3ccc(N4CCC(CN5CCN(C6CCN(c7ccc8c(c7)C(=O)N(C7CCC(=O)NC7=O)C8=O)CC6)CC5)CC4)cn3)CC2)cc1C(F)(F)F (stereo not shown) , answer whether its inhibition at 0.01 µM meets or surpasses 30%.
y

Does the reported inhibition at 0.01 µM for N#Cc1ccc(N2CCC(C(=O)Nc3ccc(N4CCN(CCCCCOc5ccc6c(c5)C(=O)N(C5CCC(=O)NC5=O)C6=O)CC4)cn3)CC2)cc1Cl (stereo not shown) fall at or above the 30% mark?
y

----------
# SYSTEM UNDER TEST: Androgen Receptor (AR) protein (Homo sapiens, UniProt P10275, T878A)
# Construct: endogenous in cells; host or cells: LNCaP
# PROTOCOL SUMMARY: Androgen Receptor (AR) protein degradation assay in LNCaP cells, western blotting
# Format: cell-based
# RUN CONDITIONS: 20 h, 0.1 μM compound
QUANTITY MEASURED: inhibition at 0.1 µM

Respond only with inhibition at 0.1 µM recorded for N#Cc1ccc(N2CCC(C(=O)Nc3ccc(CN4CCN(CC5CCN(c6ccc7c(c6)C(=O)N(C6CCC(=O)NC6=O)C7=O)CC5)CC4)cn3)CC2)cc1C(F)(F)F (stereo not drawn)
95%

New cases:
Supply recorded inhibition at 0.1 µM for N#Cc1ccc(N2CCC(C(=O)Nc3ccc(N4CCC(CN5CCN(C[C@H]6CCN(c7ccc8c(c7)C(=O)N(C7CCC(=O)NC7=O)C8=O)C6)CC5)CC4)cc3)CC2)cc1C(F)(F)F (stereo partly drawn) here.
24%

Given N#Cc1ccc(N2CCC(C(=O)Nc3ccc(N4CCC(CCN5CCC6(CC5)CN(c5ccc7c(c5)C(=O)N(C5CCC(=O)NC5=O)C7=O)C6)CC4)cn3)CC2)cc1C(F)(F)F (stereo not drawn) , respond with its inhibition at 0.1 µM.
96%

----------
# SYSTEM UNDER TEST: Androgen Receptor (AR) protein (Homo sapiens, UniProt P10275, T878A)
# Construct: endogenous in cells; host or cells: LNCaP
# PROTOCOL SUMMARY: Androgen Receptor (AR) protein degradation assay in LNCaP cells, western blotting
# Assay type: cell-based
# RUN CONDITIONS: 20 h, 0.1 μM compound
QUANTITY MEASURED: inhibition at 0.1 µM

Look over these answered cases.
GET inhibition at 0.1 µM where system = Androgen Receptor (AR) protein (Homo sapiens, UniProt P10275, T878A) and item = C[C@@H]1CN(CC2CCN(c3ccc(C(=O)NC4CCC(=O)NC4=O)nc3)CC2)CCN1CC1CCN(c2ccc(NC(=O)C3CCN(c4ccc(C#N)c(C(F)(F)F)c4)CC3)nc2)CC1 (some centres unmarked) [Example 108]
85%

GET inhibition at 0.1 µM | system: Androgen Receptor (AR) protein (Homo sapiens, UniProt P10275, T878A) | item: N#Cc1ccc(N2CCC(C(=O)Nc3ccc(N4CCC(CCN5CC(N6CCN(c7ccc8c(n7)CN(C7CCC(=O)NC7=O)C8=O)CC6)C5)CC4)cn3)CC2)cc1C(F)(F)F (centres unmarked) [Example 98]
89%

Lab note: record inhibition at 0.1 µM of C[C@@H]1CN(CC2CCN(c3ccc4c(c3)C(=O)N(C3CCC(=O)NC3=O)C4=O)CC2)CCN1CC1CCN(c2ccc(NC(=O)C3CCN(c4ccc(C#N)c(C(F)(F)F)c4)CC3)nc2)CC1 (some centres unmarked) [Example 23] tested on Androgen Receptor (AR) protein (Homo sapiens, UniProt P10275, T878A).
98%

Report value only: inhibition at 0.1 µM, Androgen Receptor (AR) protein (Homo sapiens, UniProt P10275, T878A), N#Cc1ccc(N2CCC(C(=O)Nc3ccc(OC4CCN(CC5CCN(c6ccc7c(c6)C(=O)N(C6CCC(=O)NC6=O)C7=O)CC5)CC4)nn3)CC2)cc1C(F)(F)F (centres unmarked) [Example 187]
90%

More entries:
Jot down inhibition at 0.1 µM (Androgen Receptor (AR) protein (Homo sapiens, UniProt P10275, T878A)) of N#Cc1ccc(N2CCC(C(=O)Nc3ccc(N4CCC(CN5CCN(C[C@H]6CCN(c7ccc8c(c7)C(=O)N(C7CCC(=O)NC7=O)C8=O)C6)CC5)CC4)cn3)CC2)cc1C(F)(F)F (some centres unmarked) [Example 14] .
98%

----------
# SYSTEM UNDER TEST: Androgen Receptor (AR) protein (Homo sapiens, UniProt P10275, T878A)
# Construct: endogenous in cells; host or cells: LNCaP
# PROTOCOL SUMMARY: Androgen Receptor (AR) protein degradation assay in LNCaP cells, western blotting
# Assay type: cell-based
# RUN CONDITIONS: 20 h, 0.01 μM compound
# Method: Experimental Example 1: Androgen Receptor (AR) Protein Degradation Assay After treating LNCaP cells with the synthesized Example compound, the amount of AR protein present in the cells was measured. The amount of AR protein was measured using western blotting detection method. […] [Protein quantification] […] Then, absorbance was measured at a wavelength of 562 nm. The unknown protein concentration was measured using a BSA standard curve (0, 0.125, 0.25, 0.5, 1, 2 mg/ml). […]
Catalogue of inhibition at 0.01 µM values
Note: unit % is implicit; provide only the numeric part.

Example entries and their recorded answers appear below.
State its inhibition at 0.01 µM: N#Cc1ccc(N2CCC(C(=O)Nc3ccc(CN4CCN(CC5CCN(c6ccc7c(c6)C(=O)N(C6CCC(=O)NC6=O)C7=O)CC5)CC4)cn3)CC2)cc1C(F)(F)F (centres unmarked)
62

Give recorded inhibition at 0.01 µM. N#Cc1ccc(N2CCC(C(=O)Nc3ccc(N4CCC(CCN5CC6(CCN(c7ccc8c(c7)C(=O)N(C7CCC(=O)NC7=O)C8=O)CC6)C5)CC4)cn3)CC2)cc1C(F)(F)F (centres unmarked)
75

Give the measured inhibition at 0.01 µM for CN(CCN1CCN(c2ccc3c(c2)C(=O)N(C2CCC(=O)NC2=O)C3=O)CC1)CC1CCN(c2ccc(NC(=O)C3CCN(c4ccc(C#N)c(C(F)(F)F)c4)CC3)nc2)CC1 (centres unmarked)
56

Next:
Read the entry N#Cc1ccc(N2CCC(F)(C(=O)Nc3ccc(N4CCC(CN5CCN(C6CCN(c7ccc8c(c7)CN(C7CCC(=O)NC7=O)C8=O)CC6)CC5)CC4)cn3)CC2)cc1C(F)(F)F (centres unmarked) and write its reported inhibition at 0.01 µM.
66

Give inhibition at 0.01 µM for the following compound: N#Cc1ncc(N2CCC(C(=O)Nc3ccc(N4CCC(CCN5CCN(c6ccc7c(c6)C(=O)N(C6CCC(=O)NC6=O)C7=O)CC5)CC4)cn3)CC2)cc1C(F)(F)F (centres unmarked)
35

----------
# SYSTEM UNDER TEST: Androgen Receptor (AR) protein (Homo sapiens, UniProt P10275, T878A)
# Construct: endogenous in cells; host or cells: LNCaP
# PROTOCOL SUMMARY: Androgen Receptor (AR) protein degradation assay in LNCaP cells, western blotting
# Assay type: cell-based
# RUN CONDITIONS: 20 h, 0.01 μM compound
QUANTITY MEASURED: inhibition at 0.01 µM (%)
Lab book: enter the figure in %, no units written.

As a guide, the following entries are already answered.
Check the records and state inhibition at 0.01 µM for N#Cc1ccc(N2CCC(C(=O)Nc3ccc(N4CCC(C(=O)N5CC6(CCN(c7ccc8c(c7)C(=O)N(C7CCC(=O)NC7=O)C8=O)CC6)C5)CC4)cn3)CC2)cc1C(F)(F)F (centres unmarked)
26

Hello, please tell me recorded inhibition at 0.01 µM for this one: N#Cc1ccc(N2CCC(C(=O)Nc3ccc(N4CCC(CN5CCN(C6CCN(c7ccc8c(c7)C(=O)N(C7CCC(=O)NC7=O)C8=O)CC6)CC5)CC4)cn3)CC2)cc1Cl (centres unmarked)
75

Please indicate inhibition at 0.01 µM recorded for N#Cc1ccc(N2CCC(C(=O)Nc3ccc(N4CCC5(CC4)CN(CC4CN(c6ccc7c(c6)C(=O)N(C6CCC(=O)NC6=O)C7=O)C4)C5)cn3)CC2)cc1C(F)(F)F (centres unmarked)
28

Answer with reported inhibition at 0.01 µM of C[C@@H]1CN(CC2CN(c3ccc4c(c3)C(=O)N(C3CCC(=O)NC3=O)C4=O)C2)CCN1CC1CN(c2ccc(NC(=O)C3CCN(c4ccc(C#N)c(C(F)(F)F)c4)CC3)nc2)C1 (some centres unmarked)
67

Return value of inhibition at 0.01 µM for input CC1(COc2ccc(NC(=O)C3CCN(c4ccc(C#N)c(C(F)(F)F)c4)CC3)nc2)CN(CC2CCN(c3ccc4c(c3)C(=O)N(C3CCC(=O)NC3=O)C4=O)CC2)C1 (centres unmarked) , no commentary.
66

---
Item N#Cc1ccc(N2CCC(C(=O)Nc3ccc(N4CCC(CCN5CC6CN(c7ccc8c(c7)C(=O)N(C7CCC(=O)NC7=O)C8=O)CC6C5)CC4)cn3)CC2)cc1C(F)(F)F (centres unmarked) : provide inhibition at 0.01 µM
63

Quote inhibition at 0.01 µM reported for N#Cc1ccc(N2CCC(C(=O)Nc3ccc(N4CCC(CCN5CC(N6CCN(c7ccc8c(c7)C(=O)N(C7CCC(=O)NC7=O)C8=O)CC6)C5)CC4)cn3)CC2)cc1C(F)(F)F (centres unmarked) please.
39

Determine from records and report inhibition at 0.01 µM for N#Cc1ccc(N2CCC(C(=O)Nc3ccc(N4CC5(CCN(CC6CN(c7ccc8c(c7)C(=O)N(C7CCC(=O)NC7=O)C8=O)C6)CC5)C4)cn3)CC2)cc1Cl (centres unmarked)
52

Assign inhibition at 0.01 µM to the following record: N#Cc1ccc(N2CCC(C(=O)Nc3ccc(CN4CCC(CN5CCC(Oc6ccc7c(c6)C(=O)N(C6CCC(=O)NC6=O)C7=O)CC5)CC4)cn3)CC2)cc1C(F)(F)F (centres unmarked)
-14

Query inhibition at 0.01 µM for N#Cc1ccc(N2CCC(C(=O)Nc3ccc(CCN4CCC(Oc5ccc6c(c5)C(=O)N(C5CCC(=O)NC5=O)C6=O)CC4)cn3)CC2)cc1C(F)(F)F (centres unmarked)
25

Determine its reported inhibition at 0.01 µM: N#Cc1ccc(N2CCC(C(=O)Nc3ccc(N4CCC(CN5CCN(C[C@H]6CCN(c7ccc8c(n7)CN(C7CCC(=O)NC7=O)C8=O)C6)CC5)CC4)cn3)CC2)cc1C(F)(F)F (some centres unmarked)
80
